These entries and their values trace back to paper PMC11995831.

Target: hCA II (Homo sapiens, UniProt P00918)
Test: hCA II inhibition assay (esterase activity)
Type: biochemical
Settings: human erythrocyte hCA II, esterase activity
pKi: −log10 of the molar value.
Please mark met if the recorded pKi is equal to or greater than 7, and not met if it falls below.

Inquiry: Check if pKi >= 7 (inclusive). Item: CC(C)COS(=O)(=O)N1C(=O)c2ccccc2C1(O)c1ccccc1 (centres unmarked) [2e]
Reply text: met

Inquiry: Given the entry CC(C)OS(=O)(=O)N1C(=O)c2ccccc2C1(O)c1ccccc1 (centres unmarked) [2c] , answer whether its pKi meets or surpasses 7.
Reply text: met

Inquiry: Could you please find out whether O=C1c2ccccc2C(O)(c2ccccc2)N1S(=O)(=O)OC1CCCCC1 (centres unmarked) [2f] has pKi that meets 7 or exceeds it?
Reply text: met

Inquiry: hey, is pKi for this one >= 7? CCCCOS(=O)(=O)N1C(=O)c2ccccc2C1(O)c1ccccc1 (centres unmarked) [2d]
Reply text: not met

----------
Endpoint: pKi. System: hCA I (Homo sapiens). Items follow.
Worth noting: pKi values are minus log10 of concentrations stated in mol/L.

Example entries and their recorded answers appear below.
# compound, pKi
measured = [
    ("CCCOS(=O)(=O)N1C(=O)c2ccccc2C1(O)c1ccccc1 (stereo not drawn)", 7.31),
    ("CC(C)COS(=O)(=O)N1C(=O)c2ccccc2C1(O)c1ccccc1 (stereo not drawn)", 7.48),
    ("CCOS(=O)(=O)N1C(=O)c2ccccc2C1(O)c1ccccc1 (stereo not drawn)", 7.66),
    ("O=C1c2ccccc2C(O)(c2ccccc2)N1S(=O)(=O)OC1CCCCC1 (stereo not drawn)", 7.79),
    ("CC(C)OS(=O)(=O)N1C(=O)c2ccccc2C1(O)c1ccccc1 (stereo not drawn)", 7.94),
]

Record for CCCCOS(=O)(=O)N1C(=O)c2ccccc2C1(O)c1ccccc1 (stereo not drawn) under target or system hCA I (Homo sapiens): pKi reported as 7.06

----------
Biological target: hCA I (Homo sapiens, UniProt P00915)
Sequence (P00915 whole entry): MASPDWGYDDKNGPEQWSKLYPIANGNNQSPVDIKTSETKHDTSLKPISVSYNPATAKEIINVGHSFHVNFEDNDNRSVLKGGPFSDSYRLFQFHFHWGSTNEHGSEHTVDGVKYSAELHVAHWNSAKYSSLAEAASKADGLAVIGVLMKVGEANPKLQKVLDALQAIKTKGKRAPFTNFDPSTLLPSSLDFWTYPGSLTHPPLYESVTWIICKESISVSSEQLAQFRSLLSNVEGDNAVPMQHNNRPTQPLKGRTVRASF
recorded_metric: IC50
Please report the result as a number followed by the unit.

Please review the following examples before continuing.
# compound, IC50
rows = [
    ("O=C1c2ccccc2C(O)(c2ccccc2)N1S(=O)(=O)OC1CCCCC1 (stereo not drawn) [2f]", "11.2 nM"),
    ("CC(C)OS(=O)(=O)N1C(=O)c2ccccc2C1(O)c1ccccc1 (stereo not drawn) [2c]", "12.6 nM"),
    ("CC(C)COS(=O)(=O)N1C(=O)c2ccccc2C1(O)c1ccccc1 (stereo not drawn) [2e]", "11.8 nM"),
]

The observed IC50 for CCCOS(=O)(=O)N1C(=O)c2ccccc2C1(O)c1ccccc1 (stereo not drawn) [2b] when tested with hCA I (Homo sapiens, UniProt P00915) stands at 42 nM

hCA I (Homo sapiens, UniProt P00915) data for CCCCOS(=O)(=O)N1C(=O)c2ccccc2C1(O)c1ccccc1 (stereo not drawn) [2d] ; its IC50: 75.7 nM

CCOS(=O)(=O)N1C(=O)c2ccccc2C1(O)c1ccccc1 (stereo not drawn) [2a] on hCA I (Homo sapiens, UniProt P00915) gives IC50 = 24.3 nM

----------
Experiment: ABTS radical cation scavenging assay
Details: absorbance at 734 nm, 30 μg/mL concentration
Checkbox rule: ABTS radical scavenging (λ734) lower than 0.4 = yes; ABTS radical scavenging (λ734) not lower than 0.4 = no.

# compound, qualitative_label
records = [
    ("CC(C)OS(=O)(=O)N1C(=O)c2ccccc2C1(O)c1ccccc1 (centres unmarked)", "no"),
    ("COc1ccc(O)c(C(C)(C)C)c1 [BHA, reference compound]", "yes"),
    ("O=C1c2ccccc2C(O)(c2ccccc2)N1S(=O)(=O)OC1CCCCC1 (centres unmarked)", "no"),
    ("Cc1cc(C(C)(C)C)c(O)c(C(C)(C)C)c1 [BHT, reference compound]", "yes"),
]

Proceed to the following item.
Inquiry: Given CC(C)COS(=O)(=O)N1C(=O)c2ccccc2C1(O)c1ccccc1 (centres unmarked) , is recorded ABTS radical scavenging (λ734) strictly lower than 0.4?
Reply text: no
